Target: gelatinase B (UniProt P14780 107-707, limits assumed)
Sequence (P14780 107-707 limits assumed): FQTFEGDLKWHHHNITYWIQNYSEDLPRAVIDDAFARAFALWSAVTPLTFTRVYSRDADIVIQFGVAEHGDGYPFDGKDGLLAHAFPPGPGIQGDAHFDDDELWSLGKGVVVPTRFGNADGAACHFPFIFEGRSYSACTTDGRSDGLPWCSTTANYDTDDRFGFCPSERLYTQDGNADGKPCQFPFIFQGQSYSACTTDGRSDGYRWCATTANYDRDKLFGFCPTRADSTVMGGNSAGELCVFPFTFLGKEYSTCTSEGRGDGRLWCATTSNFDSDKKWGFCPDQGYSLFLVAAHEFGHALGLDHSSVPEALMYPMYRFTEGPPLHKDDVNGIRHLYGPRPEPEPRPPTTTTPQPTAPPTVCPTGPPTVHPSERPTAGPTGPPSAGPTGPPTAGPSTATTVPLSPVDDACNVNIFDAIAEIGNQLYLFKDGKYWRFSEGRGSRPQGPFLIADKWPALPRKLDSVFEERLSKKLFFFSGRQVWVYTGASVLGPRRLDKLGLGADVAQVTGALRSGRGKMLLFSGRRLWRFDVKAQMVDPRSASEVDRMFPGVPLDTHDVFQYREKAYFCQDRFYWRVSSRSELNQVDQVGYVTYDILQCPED
Test: cell-based or functional assay
*1 amine or outer side, *2 acyl side, *3 side chain or, on linkers, in order; H or OH if unused. [ ]: non-standard residue; d: D form. The star is where a group is joined. Dnp = O=[N+]([O-])c1ccc(*)c([N+](=O)[O-])c1; C(Me) = CSC[C@H](N[*:1])C(=O)[*:2]
Rule: Selectivity v. Coll-3 below 20 unitless gives Yes. Equal to or above 20 unitless gives No.

These recorded examples may help you get a feel for the data.
Dnp-GPAPFRV[C(Me)]-NH2 (SMILES CSC[C@H](NC(=O)[C@@H](NC(=O)[C@H](CCCNC(=N)N)NC(=O)[C@H](Cc1ccccc1)NC(=O)[C@@H]1CCCN1C(=O)[C@H](C)NC(=O)[C@@H]1CCCN1C(=O)CNc1ccc([N+](=O)[O-])cc1[N+](=O)[O-])C(C)C)C(N)=O) [Dnp-GPAPFRVC(Me)-NH2]
No
Dnp-GPSPFHV[C(Me)]-NH2 (SMILES CSC[C@H](NC(=O)[C@@H](NC(=O)[C@H](Cc1c[nH]cn1)NC(=O)[C@H](Cc1ccccc1)NC(=O)[C@@H]1CCCN1C(=O)[C@H](CO)NC(=O)[C@@H]1CCCN1C(=O)CNc1ccc([N+](=O)[O-])cc1[N+](=O)[O-])C(C)C)C(N)=O) [Dnp-GPSPFHVC(Me)-NH2]
No
Dnp-GPLQMRG-NH2 (SMILES CSCC[C@H](NC(=O)[C@H](CCC(N)=O)NC(=O)[C@H](CC(C)C)NC(=O)[C@@H]1CCCN1C(=O)CNc1ccc([N+](=O)[O-])cc1[N+](=O)[O-])C(=O)N[C@@H](CCCNC(=N)N)C(=O)NCC(N)=O) [Dnp-GPLQMRG-NH2]
Yes
Dnp-PHPFRG-NH2 (SMILES N=C(N)NCCC[C@H](NC(=O)[C@H](Cc1ccccc1)NC(=O)[C@@H]1CCCN1C(=O)[C@H](Cc1c[nH]cn1)NC(=O)[C@@H]1CCCN1c1ccc([N+](=O)[O-])cc1[N+](=O)[O-])C(=O)NCC(N)=O) [Dnp-PHPFRG-NH2]
Yes

# ---- query binder ----
Request: Decide: Selectivity v. Coll-3 of Dnp-GPYGMRA-NH2 (SMILES CSCC[C@H](NC(=O)CNC(=O)[C@H](Cc1ccc(O)cc1)NC(=O)[C@@H]1CCCN1C(=O)CNc1ccc([N+](=O)[O-])cc1[N+](=O)[O-])C(=O)N[C@@H](CCCNC(=N)N)C(=O)N[C@@H](C)C(N)=O) [Dnp-GPYGMRA-NH2] strictly below 20 unitless?
Response: Yes
